The measured values listed here are drawn from paper PMC9007951.

# EXPERIMENT NOTES: Timed organ biodistribution of [^64Cu]Cu-DOTATATE by ex vivo gamma counting
# Format: in vivo, mice
# PARTICULARS: mouse, pancreas, intravenous, 1.85 MBq, total radioactivity; female Apoe^-/- mice 12 weeks on Western Diet, 1 min after injection, median (IQR), N=3-8; read-out: Tissue radioactivity, pancreas
OBSERVED PROPERTY: tissue uptake at 1 min
Could you give the number and then its unit, please?

## Input Please give the measured tissue uptake at 1 min for this molecule: C[C@@H](O)[C@H](NC(=O)[C@@H]1CSSC[C@H](NC(=O)[C@@H](Cc2ccccc2)NC(=O)CN2CCN(CC(=O)O)CCN(CC(=O)O)CCN(CC(=O)O)CC2)C(=O)N[C@@H](Cc2ccc(O)cc2)C(=O)N[C@H](Cc2c[nH]c3ccccc23)C(=O)N[C@@H](CCCCN)C(=O)N[C@@H]([C@@H](C)O)C(=O)N1)C(=O)O [[^64Cu]Cu-DOTATATE, metal not drawn]
## Output 4.7 %ID/g
